# experimentNotes: qHTS Assay for Lipid Storage Modulators in Drosophila S3 Cells
# runParameters: BODIPY lipid droplet fluorescence, 18-24 h, cells fed with added oleic acid; series mostly up to 46.1 µM
Among all 320,000 compounds or so, about 2,100 (0.66%) were called active. About 53% were inconclusive and are not listed. Calls come from the whole dose curve; as a rule, active = well fitted inhibition curve with a large enough effect in the signal ratio, with a control signal flat (not every such curve was filed as active); inconclusive = small, poorly fitted or top-dose-only effect, or effect the other way, or a change in a side signal; inactive = flat fitted curve, though single readings scatter; the % refers to the signal ratio. For the sample, actives were picked, then their nearest neighbours and some compounds at random.
Response enum: active, inactive

Tell me the recorded outcome of this test for COc1cc2c(cc1OC)C(c1ccccc1)N(C(=O)c1cccc(S(C)(=O)=O)c1)CC2 (stereo not given) .
inactive

Could you please tell me the result logged for COc1ccc(CN2CCCCC2C)cc1C (stereo not given) in this assay?
inactive

Record request — test call for "Cn1c(CC(=O)NCCO)c(Sc2ccccc2)c2ccccc21"
inactive

Kindly provide the recorded test outcome for the following compound: "O=C(Nc1cccc(C(F)(F)F)c1)c1cccnc1N1CCCC1"
inactive

Record request — test call for "O=C(Nc1cccc(C(F)(F)F)c1)c1cccnc1NCCO"
active

What call does the record list for CC1(C)Cc2c(cnn2-c2cccc(F)c2)C(NC(=O)CN2CCCC2=O)C1 (stereo not given) ?
inactive

Recorded call for O=C1Nc2ccc(S(=O)(=O)N3CCCC3C(=O)O)c3cccc1c23 (stereo not given) ?
inactive

What was the test verdict on "OC[C@H]1O[C@@H](O[C@@H]2[C@@H](CO)O[C@@](O)(CO)[C@H]2O)[C@H](O)[C@@H](O)[C@H]1O" ?
inactive

Identify the outcome logged in this assay for the compound shown: "CC(=O)N1N=C(c2ccncc2)OC12CCCC2"
active

GET /call?item= "CC(=O)c1c(C)nn(-c2ccccc2)c1C" returns the recorded outcome of this test.
inactive

What is the recorded call for this compound in the test? "CC(=O)N1N=C(c2ccccc2)OC12CCCC2"
inactive

Per the assay record, what outcome was assigned to "Cc1c(C(=O)NCCSCc2ccccc2)cccc1[N+](=O)[O-]" ?
inactive

Query: recorded result category for CC(C(=O)NC1=NCCS1)N1C(=O)C2CC=CCC2C1=O (stereo not given) in this test
active

Which outcome was entered for the compound "Cc1nn(-c2ccccc2)c(C)c1S(=O)(=O)O" in this test?
inactive

Assay result, entry "CCN(C(=O)COC(=O)c1cc(=O)c2ccccc2o1)c1c(N)n(Cc2ccccc2)c(=O)[nH]c1=O" — outcome?
inactive

What did this assay record as the result for "COc1ccc(C(C)=O)cc1CSc1nnc(Nc2ccccc2C)s1" ?
inactive

Record request — test call for "O=C(Nc1cccc(C(F)(F)F)c1)Oc1ccc(Cl)c2cccnc12"
active

Please share the test call associated with "O=C(Oc1ccc(Cl)c2cccnc12)N1CCCCCC1" .
inactive

# lookup: test call for "CCCc1nc(NCCO)c(C#N)c2c1CCCC2"
inactive

How was "O=C(Cc1c(Sc2ccccc2)c2ccccc2n1Cc1ccccc1)NCCO" classified in this test?
active

Can you look up the reported call for "CSc1c(CC(=O)NCCCO)n(Cc2ccccc2)c2ccccc12" for me?
inactive

Tell me the assay call for "Cc1nn(-c2ccccc2)c(C)c1-c1ccccc1O" please.
active

Which outcome did this test record for the compound "COc1cc(-c2nc(CCNC(=O)c3ccco3)cs2)cc(OC)c1OC" ?
active

Just curious, what result did "O=C(Nc1cccc(C(F)(F)F)c1)c1cccnc1N1CCN(CCO)CC1" get here?
inactive

* * *

# experimentNotes: qHTS Assay for Lipid Storage Modulators in Drosophila S3 Cells
# runParameters: BODIPY lipid droplet fluorescence, 18-24 h, cells fed with added oleic acid; series mostly up to 46.1 µM
About 2,100 (0.66%) of roughly 320,000 compounds were called active. Roughly 53% stayed inconclusive and do not appear here. Calls come from the whole dose curve; as a rule, active = well fitted inhibition curve with a large enough effect in the signal ratio, with a control signal flat (not every such curve was filed as active); inconclusive = small, poorly fitted or top-dose-only effect, or effect the other way, or a change in a side signal; inactive = flat fitted curve, though single readings scatter; the % refers to the signal ratio. Shown is part of a subset that was picked to be rich in actives.
Respond only with the outcome that fits, drawn from true = active, false = inactive

Solved entries:
- compound: "CCOc1ccc(CCNC(=O)c2nnc(Cc3ccc(F)cc3)o2)cc1OCC"
  answerLabel: "false"
- compound: "Cc1cc(/C=N/N2CCN(C)CC2)c(C)n1-c1ccccc1F"
  answerLabel: "false"
- compound: "COc1ccc(NC(=O)C2CCN(S(=O)(=O)c3c(C)noc3C)CC2)cc1OC"
  answerLabel: "false"
- compound: "Cc1c(C(=O)NCc2cccnc2)sc2nc(-c3ccccc3)cn12"
  answerLabel: "false"

Could you kindly confirm the outcome this assay logged for "COCCN(C(=O)COC(=O)/C(=C/c1ccccc1)NC(C)=O)c1c(N)n(Cc2ccccc2)c(=O)[nH]c1=O" ?
false

Tell me the assay call for "CN(Cc1c(C(=O)N/N=C/c2ccccc2)nnn1-c1nonc1N)c1ccccc1" please.
true

Dear all, I need the recorded test outcome for "Cc1ccc(-c2ccc(S(=O)(=O)N3CCCC3)cc2)cc1" , thank you.
false
